Test system: Blumeria graminis f. sp. tritici
assay-protocol: Test D: wheat powdery mildew, preventive spray on wheat seedlings, visual disease rating
Type: in vivo
condition-notes: 200 ppm test suspension sprayed to run-off on wheat seedlings; 100 = 100% disease control, 0 = no control
experimental-readout: Test D disease control rating
Could you kindly put the unit after your number?

(Q) Give the reported value of Test D disease control rating for this record: Cc1nn(C)c(-c2c(F)cc(-n3cccn3)cc2F)c1C(O)c1ccc(F)cc1Cl (stereo not drawn) [Compound 3]
(A) 81%

(Q) Give the reported value of Test D disease control rating for this record: CO/N=C/c1cc(F)c(-c2c(C(O)c3ccc(F)cc3Cl)c(C)nn2C)c(F)c1 (stereo not drawn) [Compound 14]
(A) 95%

(Q) Give the reported value of Test D disease control rating for this record: C#CCOc1cc(F)c(-c2c(C(O)c3ccc(F)cc3Cl)c(C)nn2C)c(F)c1 (stereo not drawn) [Compound 5]
(A) 99%

====

System: Septoria tritici
assay-protocol: Test B: wheat leaf blotch, preventive spray on wheat seedlings, visual disease rating
Type: in vivo
condition-notes: 200 ppm test suspension sprayed to run-off on wheat seedlings; 100 = 100% disease control, 0 = no control
experimental-readout: Test B disease control rating
Could you kindly put the unit after your number?

(Q) Give the reported value of Test B disease control rating for this record: Cc1nn(C)c(-c2c(F)cc(/C=N/O)cc2F)c1C(O)c1ccc(F)cc1Cl (centres unmarked)
(A) 98%

(Q) Give the reported value of Test B disease control rating for this record: CCCCOc1cc(F)c(-c2c(C(O)c3ccc(F)cc3Cl)c(C)nn2C)c(F)c1 (centres unmarked)
(A) 98%

(Q) Give the reported value of Test B disease control rating for this record: Cc1nn(C)c(-c2c(F)cc(OCC3CC3)cc2F)c1C(O)c1ccc(F)cc1Cl (centres unmarked)
(A) 96%

(Q) Give the reported value of Test B disease control rating for this record: CO/N=C/c1cc(F)c(-c2c(C(O)c3ccc(F)cc3Cl)c(C)nn2C)c(F)c1 (centres unmarked)
(A) 99%

(Q) Give the reported value of Test B disease control rating for this record: C=CCOc1cc(F)c(-c2c(C(O)c3ccc(F)cc3Cl)c(C)nn2C)c(F)c1 (centres unmarked)
(A) 99%

(Q) Give the reported value of Test B disease control rating for this record: Cc1nn(C)c(-c2c(F)cc(C3CO3)cc2F)c1C(O)c1ccc(F)cc1Cl (centres unmarked)
(A) 95%

(Q) Give the reported value of Test B disease control rating for this record: C#CCOc1cc(F)c(-c2c(C(O)c3ccc(F)cc3Cl)c(C)nn2C)c(F)c1 (centres unmarked)
(A) 99%

(Q) Give the reported value of Test B disease control rating for this record: Cc1nn(C)c(-c2c(F)cc(OCCC(C)C)cc2F)c1C(O)c1ccc(F)cc1Cl (centres unmarked)
(A) 87%

====

Would you mind telling me the reported Test D disease control rating of each entry?
System: Blumeria graminis f. sp. tritici
assay-protocol: Test D: wheat powdery mildew, preventive spray on wheat seedlings, visual disease rating
Assay type: in vivo
condition-notes: 200 ppm test suspension sprayed to run-off on wheat seedlings; 100 = 100% disease control, 0 = no control
Give the value in % but do not write % after it.

(Q) Give the reported value of Test D disease control rating for this record: C=CCOc1cc(F)c(-c2c(C(O)c3ccc(F)cc3Cl)c(C)nn2C)c(F)c1 (centres unmarked) [Compound 6]
(A) 95

(Q) Give the reported value of Test D disease control rating for this record: Cc1nn(C)c(-c2c(F)cc(C3CO3)cc2F)c1C(O)c1ccc(F)cc1Cl (centres unmarked) [Compound 8]
(A) 27

(Q) Give the reported value of Test D disease control rating for this record: Cc1nn(C)c(-c2c(F)cc(C#CC3CC3)cc2F)c1C(O)c1ccc(F)cc1Cl (centres unmarked) [Compound 2]
(A) 98

(Q) Give the reported value of Test D disease control rating for this record: CCCCOc1cc(F)c(-c2c(C(O)c3ccc(F)cc3Cl)c(C)nn2C)c(F)c1 (centres unmarked) [Compound 13]
(A) 98

(Q) Give the reported value of Test D disease control rating for this record: Cc1nn(C)c(-c2c(F)cc(OCC3CC3)cc2F)c1C(O)c1ccc(F)cc1Cl (centres unmarked) [Compound 10]
(A) 94

(Q) Give the reported value of Test D disease control rating for this record: Cc1nn(C)c(-c2c(F)cc(-n3ccc(C(F)(F)F)n3)cc2F)c1C(O)c1ccc(F)cc1Cl (centres unmarked) [Compound 4]
(A) 0

(Q) Give the reported value of Test D disease control rating for this record: Cc1nn(C)c(-c2c(F)cc(/C=N/O)cc2F)c1C(O)c1ccc(F)cc1Cl (centres unmarked) [Compound 11]
(A) 69

(Q) Give the reported value of Test D disease control rating for this record: Cc1nn(C)c(-c2c(F)cc(/C=C/C3CC3)cc2F)c1C(O)c1ccc(F)cc1Cl (centres unmarked) [Compound 1]
(A) 98

====

Tested on: Botrytis cinerea
assay-protocol: Test C: tomato Botrytis, preventive spray on tomato seedlings, visual disease rating
Type: in vivo
condition-notes: 200 ppm test suspension sprayed to run-off on tomato seedlings; 100 = 100% disease control, 0 = no control
experimental-readout: Test C disease control rating (%)
Give the value in % but do not write % after it.

(Q) Give the reported value of Test C disease control rating for this record: C#CCOc1cc(F)c(-c2c(C(O)c3ccc(F)cc3Cl)c(C)nn2C)c(F)c1 (stereo not drawn) [Compound 5]
(A) 98

(Q) Give the reported value of Test C disease control rating for this record: Cc1nn(C)c(-c2c(F)cc(C3CO3)cc2F)c1C(O)c1ccc(F)cc1Cl (stereo not drawn) [Compound 8]
(A) 30

(Q) Give the reported value of Test C disease control rating for this record: Cc1nn(C)c(-c2c(F)cc(-n3cccn3)cc2F)c1C(O)c1ccc(F)cc1Cl (stereo not drawn) [Compound 3]
(A) 59

(Q) Give the reported value of Test C disease control rating for this record: Cc1nn(C)c(-c2c(F)cc(C#CC3CC3)cc2F)c1C(O)c1ccc(F)cc1Cl (stereo not drawn) [Compound 2]
(A) 98

(Q) Give the reported value of Test C disease control rating for this record: Cc1nn(C)c(-c2c(F)cc(-n3ccc(C(F)(F)F)n3)cc2F)c1C(O)c1ccc(F)cc1Cl (stereo not drawn) [Compound 4]
(A) 0

(Q) Give the reported value of Test C disease control rating for this record: C=CCOc1cc(F)c(-c2c(C(O)c3ccc(F)cc3Cl)c(C)nn2C)c(F)c1 (stereo not drawn) [Compound 6]
(A) 99

(Q) Give the reported value of Test C disease control rating for this record: Cc1nn(C)c(-c2c(F)cc(/C=N/O)cc2F)c1C(O)c1ccc(F)cc1Cl (stereo not drawn) [Compound 11]
(A) 15

(Q) Give the reported value of Test C disease control rating for this record: Cc1nn(C)c(-c2c(F)cc(OCC3CC3)cc2F)c1C(O)c1ccc(F)cc1Cl (stereo not drawn) [Compound 10]
(A) 12

(Q) Give the reported value of Test C disease control rating for this record: Cc1nn(C)c(-c2c(F)cc(OCCC(C)C)cc2F)c1C(O)c1ccc(F)cc1Cl (stereo not drawn) [Compound 9]
(A) 0

(Q) Give the reported value of Test C disease control rating for this record: Cc1nn(C)c(-c2c(F)cc(/C=C/C3CC3)cc2F)c1C(O)c1ccc(F)cc1Cl (stereo not drawn) [Compound 1]
(A) 0

(Q) Give the reported value of Test C disease control rating for this record: CO/N=C/c1cc(F)c(-c2c(C(O)c3ccc(F)cc3Cl)c(C)nn2C)c(F)c1 (stereo not drawn) [Compound 14]
(A) 39

(Q) Give the reported value of Test C disease control rating for this record: CCCCOc1cc(F)c(-c2c(C(O)c3ccc(F)cc3Cl)c(C)nn2C)c(F)c1 (stereo not drawn) [Compound 13]
(A) 0
